# Tested on: Candida albicans
# measurement notes: Inhibition of SE/CYP51 in Candida albicans ATCC SC5314 assessed as eburicol level incubated for 48 hrs by LC/MS analysis
# Parameters: scale not given: the % may be the effect or the level left
What Activity was measured for each of the following?
Answers are plain numbers, in %.

{"compound": "O=C(/C=C/c1cccc2ccccc12)NC(Cn1cncn1)c1ccccc1 (centres undefined)", "Activity (%)": 32.9}
{"compound": "OC(Cn1cncn1)(Cn1cncn1)c1ccc(F)cc1F [FLUCONAZOLE]", "Activity (%)": 41.5}

Required: Activity, one value per compound below.
1. CN(C/C=C/c1ccccc1)Cc1cccc2ccccc12 [NAFTIFINE]
2. O=C(/C=C/c1ccc2ccccc2c1)NC(Cn1cncn1)C(=O)c1ccccc1 (centres undefined)

OUTPUT:
5.2
34.7
